Provenance of the data: patent US20210038587A1

# TEST_SUMMARY: Phase I study: pharmacokinetic analysis
# Type: in vivo, human
# EXPERIMENTAL_PARAMETERS: human, plasma, oral, 10 mg, 10 mg BID; Day 15; read-out: AUC0-12
PROPERTY_NAME: AUC(0-t) (µg·h/mL)
Provide the reading as a plain figure in µg·h/mL.

[in] Recorded AUC(0-t) of CC(C)Nc1cc(-c2c[nH]c(C(=O)N[C@H](CO)c3cccc(Cl)c3)c2)c(Cl)cn1 , please.
[out] 0.234

---

# System: AN3Ca
# TEST_SUMMARY: Reverse Phase Protein Analysis (RPPA)
# Assay type: cell-based
# EXPERIMENTAL_PARAMETERS: % change from DMSO (matched cell line)
Quick list: Avg (Caspase 3 CL D175) per entry.
Provide the reading as a plain figure in %.

COMPOUND	TESTED_ON	UNIT_OF_MEASURE	TEST_RESULT
O=C(Nc1ccc2[nH]nc(-c3ccncc3)c2c1)[C@@H]1CCN(CC(=O)N2CCN(c3ccc(-c4ncccn4)cc3)CC2)C1 [SCH772984]	AN3Ca	%	1.25
Cn1nccc1Nc1nccc(-c2ccn([C@H](CO)c3ccc(Cl)c(F)c3)c(=O)c2)n1 [GDC-0994]	AN3Ca	%	1.55
Cc1cnc(Nc2ccc(F)cc2Cl)nc1-c1c[nH]c(C(=O)N[C@H](CO)c2cccc(Cl)c2)c1 [Vx-11e]	AN3Ca	%	−12.7

# ---- query compound ----
[in] Recorded Avg (Caspase 3 CL D175) of CC(C)Nc1cc(-c2c[nH]c(C(=O)N[C@H](CO)c3cccc(Cl)c3)c2)c(Cl)cn1 [BVD-523] , please.
[out] −10.8

---

# TEST_SUMMARY: Phase I study: pharmacokinetic analysis
# Assay type: in vivo, human
# EXPERIMENTAL_PARAMETERS: human, plasma, oral, 750 mg, Day 15; reduced from 750 mg to 450 mg/dose; read-out: Cmax, individual subject
PROPERTY_NAME: Cmax (ng/mL)
Provide the reading as a plain figure in ng/mL.

[in] Recorded Cmax of CC(C)Nc1cc(-c2c[nH]c(C(=O)N[C@H](CO)c3cccc(Cl)c3)c2)c(Cl)cn1 , please.
[out] 1300

---

# TEST_SUMMARY: Phase I study: pharmacokinetic analysis
# Type: in vivo, human
# EXPERIMENTAL_PARAMETERS: human, plasma, oral, 600 mg, 600 mg BID; Day 1; read-out: AUC0-12 ± SD
PROPERTY_NAME: AUC(0-t)

[in] Recorded AUC(0-t) of CC(C)Nc1cc(-c2c[nH]c(C(=O)N[C@H](CO)c3cccc(Cl)c3)c2)c(Cl)cn1 [BVD-523] , please.
[out] 2750 ng·h/mL

---

# TESTED_ON: P38γ (Homo sapiens, UniProt P53778)
# Sequence (P53778 whole entry): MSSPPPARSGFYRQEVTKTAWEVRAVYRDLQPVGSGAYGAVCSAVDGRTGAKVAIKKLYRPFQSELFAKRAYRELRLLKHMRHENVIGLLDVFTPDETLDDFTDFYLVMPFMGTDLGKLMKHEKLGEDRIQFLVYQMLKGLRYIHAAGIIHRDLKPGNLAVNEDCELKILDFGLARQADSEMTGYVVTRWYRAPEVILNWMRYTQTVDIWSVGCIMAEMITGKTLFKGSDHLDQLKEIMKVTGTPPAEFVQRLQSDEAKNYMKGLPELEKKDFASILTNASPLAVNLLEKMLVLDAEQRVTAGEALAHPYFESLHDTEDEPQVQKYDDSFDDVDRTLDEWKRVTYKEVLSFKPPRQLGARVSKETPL
PROPERTY_NAME: Ki (nM)
Provide the reading as a plain figure in nM.

[in] Recorded Ki of CC(C)Nc1cc(-c2c[nH]c(C(=O)N[C@H](CO)c3cccc(Cl)c3)c2)c(Cl)cn1 , please.
[out] 450

---

Quick list: Avg (p70 S6 Kinase) per entry.
# Test system: AN3Ca
# TEST_SUMMARY: Reverse Phase Protein Analysis (RPPA)
# Format: cell-based
# EXPERIMENTAL_PARAMETERS: % change from DMSO (matched cell line)
Provide the reading as a plain figure in %.

Study these solved cases before continuing.
MOLECULE	PROPERTY_NAME	TEST_RESULT
Cc1cnc(Nc2ccc(F)cc2Cl)nc1-c1c[nH]c(C(=O)N[C@H](CO)c2cccc(Cl)c2)c1 [Vx-11e]	Avg (p70 S6 Kinase)	−2.33
CC(C)Nc1cc(-c2c[nH]c(C(=O)N[C@H](CO)c3cccc(Cl)c3)c2)c(Cl)cn1 [BVD-523]	Avg (p70 S6 Kinase)	−10.27
Cn1nccc1Nc1nccc(-c2ccn([C@H](CO)c3ccc(Cl)c(F)c3)c(=O)c2)n1 [GDC-0994]	Avg (p70 S6 Kinase)	−3.67

# ---- query molecule ----
[in] Recorded Avg (p70 S6 Kinase) of O=C(Nc1ccc2[nH]nc(-c3ccncc3)c2c1)[C@@H]1CCN(CC(=O)N2CCN(c3ccc(-c4ncccn4)cc3)CC2)C1 [SCH772984] , please.
[out] −7.71

---

# Tested on: HT29
# TEST_SUMMARY: Reverse Phase Protein Analysis (RPPA)
# Type: cell-based
# EXPERIMENTAL_PARAMETERS: % change from DMSO (matched cell line)
Quick list: Avg (Bcl 2 T56) per entry.
Provide the reading as a plain figure in %.

MOLECULE	Avg (Bcl 2 T56) / %
Cc1cnc(Nc2ccc(F)cc2Cl)nc1-c1c[nH]c(C(=O)N[C@H](CO)c2cccc(Cl)c2)c1 [Vx-11e]	−25.01
Cn1nccc1Nc1nccc(-c2ccn([C@H](CO)c3ccc(Cl)c(F)c3)c(=O)c2)n1 [GDC-0994]	1.61
CC(C)Nc1cc(-c2c[nH]c(C(=O)N[C@H](CO)c3cccc(Cl)c3)c2)c(Cl)cn1 [BVD-523]	−8.18

[in] Recorded Avg (Bcl 2 T56) of O=C(Nc1ccc2[nH]nc(-c3ccncc3)c2c1)[C@@H]1CCN(CC(=O)N2CCN(c3ccc(-c4ncccn4)cc3)CC2)C1 [SCH772984] , please.
[out] −17.9

---

# System: A375
# TEST_SUMMARY: Reverse Phase Protein Analysis (RPPA)
# Type: cell-based, human
# EXPERIMENTAL_PARAMETERS: % change from DMSO (matched cell line)
PROPERTY_NAME: Avg(p70 S6 Kinase S371 S394) (%)
Provide the reading as a plain figure in %.

COMPOUND	Avg(p70 S6 Kinase S371 S394) [%]
Cn1nccc1Nc1nccc(-c2ccn([C@H](CO)c3ccc(Cl)c(F)c3)c(=O)c2)n1 [GDC-0994]	−17.34
CC(C)Nc1cc(-c2c[nH]c(C(=O)N[C@H](CO)c3cccc(Cl)c3)c2)c(Cl)cn1 [BVD-523]	−8.58

[in] Find the measured Avg(p70 S6 Kinase S371 S394): item Cc1cnc(Nc2ccc(F)cc2Cl)nc1-c1c[nH]c(C(=O)N[C@H](CO)c2cccc(Cl)c2)c1 [Vx-11e] , target or system A375.
[out] −17.32

[in] Find the measured Avg(p70 S6 Kinase S371 S394): item O=C(Nc1ccc2[nH]nc(-c3ccncc3)c2c1)[C@@H]1CCN(CC(=O)N2CCN(c3ccc(-c4ncccn4)cc3)CC2)C1 [SCH772984] , target or system A375.
[out] −28.72

---

# TESTED_ON: CDK6/cycinD3 (Homo sapiens)
# Sequence (Q00534 whole entry, species assumed): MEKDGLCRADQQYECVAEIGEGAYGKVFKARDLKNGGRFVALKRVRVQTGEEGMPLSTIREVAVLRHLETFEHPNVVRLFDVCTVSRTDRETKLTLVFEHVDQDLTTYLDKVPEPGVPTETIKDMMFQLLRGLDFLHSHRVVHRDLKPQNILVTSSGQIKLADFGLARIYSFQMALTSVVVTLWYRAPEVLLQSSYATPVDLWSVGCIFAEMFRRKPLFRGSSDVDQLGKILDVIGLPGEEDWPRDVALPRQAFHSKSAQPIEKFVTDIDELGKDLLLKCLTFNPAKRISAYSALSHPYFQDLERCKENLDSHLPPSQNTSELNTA
# Sequence (P30281 whole entry partner, species assumed): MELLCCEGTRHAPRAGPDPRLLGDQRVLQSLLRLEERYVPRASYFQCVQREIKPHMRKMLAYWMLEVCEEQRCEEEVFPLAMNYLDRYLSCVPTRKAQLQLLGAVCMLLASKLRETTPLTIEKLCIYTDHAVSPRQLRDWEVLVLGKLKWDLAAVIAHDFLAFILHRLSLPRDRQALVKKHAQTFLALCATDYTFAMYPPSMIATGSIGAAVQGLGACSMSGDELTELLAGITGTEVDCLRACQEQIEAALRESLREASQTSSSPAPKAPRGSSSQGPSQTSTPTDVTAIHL
# TEST_SUMMARY: Kinase counter-screen, Ki
# EXPERIMENTAL_PARAMETERS: apparent Ki
PROPERTY_NAME: pKi
// pKi: -log10(molar conc.)

[in] Find the measured pKi: item CC(C)Nc1cc(-c2c[nH]c(C(=O)N[C@H](CO)c3cccc(Cl)c3)c2)c(Cl)cn1 [BVD-523] , target or system CDK6/cycinD3 (Homo sapiens).
[out] 7.05

---

# TEST_SUMMARY: Phase I study: pharmacokinetic analysis
# Assay type: in vivo, human
# EXPERIMENTAL_PARAMETERS: human, plasma, oral, 600 mg, 600 mg BID; Day 15; read-out: AUC0-12 ± SD
PROPERTY_NAME: AUC(0-t) (ng·h/mL)
Provide the reading as a plain figure in ng·h/mL.

[in] Recorded AUC(0-t) of CC(C)Nc1cc(-c2c[nH]c(C(=O)N[C@H](CO)c3cccc(Cl)c3)c2)c(Cl)cn1 , please.
[out] 24400

---

# Test system: HT29
# TEST_SUMMARY: Reverse Phase Protein Analysis (RPPA)
# Type: cell-based
# EXPERIMENTAL_PARAMETERS: % change from DMSO (matched cell line)
Quick list: Avg(S6 Ribo Prot S235 236) per entry.
Provide the reading as a plain figure in %.

Study these solved cases before continuing.
MOLECULE	TESTED_ON	Avg(S6 Ribo Prot S235 236) / %
Cn1nccc1Nc1nccc(-c2ccn([C@H](CO)c3ccc(Cl)c(F)c3)c(=O)c2)n1	HT29	−41.45
O=C(Nc1ccc2[nH]nc(-c3ccncc3)c2c1)[C@@H]1CCN(CC(=O)N2CCN(c3ccc(-c4ncccn4)cc3)CC2)C1	HT29	−44.9
CC(C)Nc1cc(-c2c[nH]c(C(=O)N[C@H](CO)c3cccc(Cl)c3)c2)c(Cl)cn1	HT29	−44.68

# ---- query molecule ----
[in] Find the measured Avg(S6 Ribo Prot S235 236): item Cc1cnc(Nc2ccc(F)cc2Cl)nc1-c1c[nH]c(C(=O)N[C@H](CO)c2cccc(Cl)c2)c1 [Vx-11e] , target or system HT29.
[out] −32.8
